From: PubChem BioAssay (Tox21)

Assay: qHTS assay to identify small molecule that activate the aryl hydrocarbon receptor (AhR) signaling pathway - cell viability counter screen (AID 743086); further: nearly all actives have a fitted effect of over 45% in size
Conditions: HepG2-AhR-luc viability, CellTiter-Fluor, 24 h; series mostly up to 70.3 µM
Excerpt: U.S. Tox21 Program National Center for Advancing Translational Sciences [NCATS] NIH Chemical Genomics Center [NCGC] U.S. Environmental Protection Agency [EPA] National Institutes of Environmental Health Sciences [NIEHS] National Toxicology Program [NTP] U.S. Food and Drug Administration [FDA] Tox21 Assay overview: The Aryl hydrocarbon Receptor (AhR), a member of the family of basic helix-loop-helix transcription factors, is crucial to adaptive responses to environmental changes. […]
Results filed as inconclusive are left out. Activity calls are given as the source filed them. The call rests on the fitted dose curve; in most records, active means well fitted cell-killing curve with a large enough effect in the repeat runs; inconclusive means weak or mixed curves, or effect the other way; inactive means flat fitted curve, though single readings scatter.
Answer with one of the outcomes given here: 1 for active, 0 for inactive

• Nc1c(Br)cc(Br)c2c1C(=O)c1ccccc1C2=O = 0
• C[Si](Cn1cncn1)(c1ccc(F)cc1)c1ccc(F)cc1 = 1
• CCC(C)(C)O = 0
• O=C1NC(=O)C(=O)C(=O)N1 = 0
• CC(C)(C)c1ccc(CCOc2ncnc3ccccc23)cc1 = 0

Incoming: Please let me know the test result on file for `CN[C@@H](C)[C@H](O)c1ccccc1` .
Outgoing: 0

Incoming: Record lookup: outcome of this test for `CCC[N+](CCC)(CCC)CCC` ?
Outgoing: 0
